These entries and their values trace back to PubChem BioAssay (NCI).

# Assay: NCI Yeast Anticancer Drug Screen. Data for the mec2-1 strain (AID 157)
# Assay Context: S. cerevisiae mec2-1 strain, at 50.0 µM (retest, dose inferred, filed as 5.0), stronger effect = higher value
The panel holds about 79,000 compounds, 15% with a hit somewhere; the sample as a whole holds those more often.
Binning of growth inhibition into classes: group 1 (below 10%), group 2 (10% to below 90%), group 3 (90% or more)

Completed entries (count: 3):
CCCCCC(C)C1=NC(C)(C)CC(C)O1 (centres undefined)    group 1
COc1c2c(cc3c1c(=O)c1ccccc1n3C)OCO2    group 1
C1=CC2C(c3cccc4ccccc34)O[C@H]2O1 (some centres undefined)    group 3

# classify by growth inhibition band: COC(=O)c1ccc(NN)cc1
group 2

# classify by growth inhibition band: Cn1nc2c(c(Cl)c1=O)Nc1ccccc1O2
group 1

# classify by growth inhibition band: N#CC1CCC(c2ccccc2)(c2ccccc2)C1=O (centres undefined)
group 3

# classify by growth inhibition band: COC(=O)c1ccccc1C=C(c1ccc([N+](=O)[O-])cc1)c1ccc([N+](=O)[O-])cc1
group 3

# classify by growth inhibition band: CSC(=S)N/N=C(/C)CC(C)C
group 3

# classify by growth inhibition band: CC(C)=CCC/C(=C/CC/C(C)=C/CCc1ccoc1)C(=O)O
group 2

# classify by growth inhibition band: COc1ccc(/C=C(/C#N)c2ccccc2)cc1
group 2

# classify by growth inhibition band: O/N=C1\c2ccccc2-c2ccc(Cl)cc21
group 2

# classify by growth inhibition band: COc1ccc2c(c1)[n+]([O-])c(-c1ccc(Cl)cc1)c(N)[n+]2[O-]
group 3

# classify by growth inhibition band: C/C(=N/NC(N)=S)C(CN(C)C)C(C1=C(O)c2ccccc2OC1)c1ccccc1 (centres undefined)
group 1

====

# Assay: NCI Yeast Anticancer Drug Screen. Data for the mlh1 rad18 strain (AID 175)
# Assay Context: S. cerevisiae mlh1 rad18 strain growth inhibition; at 50.0 µM; stronger effect = higher value
About 79,000 compounds went through this panel and 15% of them were active in at least one assay; those are over-represented in the sample as a whole.
Measured growth inhibition, listed per entry.
Numeric only. Scale: %

Recorded results for 3 molecules are shown here.
Nc1cc(Cl)c2c(c1)Cc1ccccc1-2    86.8
CCOC(=O)N1c2ccc3ccccc3c2C=CC1C#N (stereo not drawn)    94.7
CC(c1ccc2cccc(F)c2c1)c1ccccc1C(=O)O (stereo not drawn)    98.2

Value lookup for growth inhibition; key = C=C1CC(Cn2cc(C)c(=O)[nH]c2=O)(c2ccc(Cl)cc2)OC1=O (stereo not drawn)
85.3

Value lookup for growth inhibition; key = Cc1cccc(O)c(=O)c1
99.5

Value lookup for growth inhibition; key = O=C1CCCC/C1=C/c1ccc(Cl)cc1
90.8

Value lookup for growth inhibition; key = COc1ccc(N=NC(C(=O)c2ccccc2)C(=O)c2ccccc2)cc1
91.2

Value lookup for growth inhibition; key = O=C(c1ccccc1)C1C(c2ccccc2)OP(c2ccccc2)(c2ccccc2)(c2ccccc2)C1c1ccccc1 (stereo not drawn)
99.8

====

# Assay: NCI Yeast Anticancer Drug Screen. Data for the cln2 rad14 strain (AID 165);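 note: 0% = growth equal to vehicle treated cultures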
# Assay Context: S. cerevisiae cln2 rad14 strain, at 5.0 µM (retest, dose inferred, filed as 0.5), stronger effect = higher value
This is part of a sample that, as a whole, favours compounds with a hit. Of some 79,000 tested, about 15% had one in any assay.
Measured growth inhibition, listed per entry.
Numeric only. Scale: %

Recorded results for 2 compounds are shown here.
CC(=O)c1cccc(NC(=O)C(=O)NNc2n[nH]c(=S)n2N)c1    19
CCCCCCCCCCCCCCCC[N+](C)(C)CCCCCC(=O)OC    99

--- query ---
Value lookup for growth inhibition; key = O=C(COc1ccccc1)Oc1c(Cl)c(Cl)c(Cl)c(Cl)c1Cl
10
